- Test system: SNK-6 (IL-2 2.5 ng/mL);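 further: normalised to DMSO-only wells as negative and benzethonium chloride as positive control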
- Assay Text: percent inhibition of viability; higher = more inhibition
- Experimental Context: 72 h; 2500 nM
Listing of recorded percent inhibition of viability by entry.
Parameter Measured: percent inhibition of viability (%)

>  <Compound>
C[C@@H]1CN(CC(=O)Nc2ccc3c(c2)Cc2cccc(-c4cc(=O)cc(N5CCOCC5)o4)c2S3)C[C@H](C)O1 (max concentration tested 25000 nM)

>  <Parameter Measured>
percent inhibition of viability

>  <Unit>
%

>  <Measured Result>
9

$$$$
>  <Compound>
Cc1cc([C@@H](C)Nc2ccccc2C(=O)O)c2nc(N3CCOCC3)cc(=O)n2c1 [AZD-6482] (max concentration tested 2500 nM)

>  <Parameter Measured>
percent inhibition of viability

>  <Unit>
%

>  <Measured Result>
9.67

$$$$
>  <Compound>
CC(=O)OC[C@H]1O[C@@H]([S-])[C@H](OC(C)=O)[C@@H](OC(C)=O)[C@@H]1OC(C)=O.CCP(CC)CC.[Au+] [Auranofin] (max concentration tested 2500 nM)

>  <Parameter Measured>
percent inhibition of viability

>  <Unit>
%

>  <Measured Result>
86

$$$$
>  <Compound>
CC(C)(C)c1nc(-c2cccc(NS(=O)(=O)c3c(F)cccc3F)c2F)c(-c2ccnc(N)n2)s1 [Dabrafenib] (max concentration tested 2500 nM)

>  <Parameter Measured>
percent inhibition of viability

>  <Unit>
%

>  <Measured Result>
0

$$$$
